# test.name: Pharmacokinetic study of EF31 i.p. in mice
# Assay type: in vivo, ND4 Swiss Webster mice
# test.parameters: male, ND4 Swiss Webster, mouse, plasma, ip, 25 mg/kg

{"columns": ["compound", "Vd/F, L/kg"],
 "data": [
  ["O=C1C(=Cc2ccccn2)CNCC1=Cc1ccccn1 [EF31]", 11.1]
]}

---

# test.name: Pharmacokinetic study of EF31 i.p. in mice
# Assay type: in vivo, ND4 Swiss Webster mice
# test.parameters: male, ND4 Swiss Webster, mouse, plasma, ip, 12.5 mg/kg

{"columns": ["compound", "Vd/F, L/kg"],
 "data": [
  ["O=C1C(=Cc2ccccn2)CNCC1=Cc1ccccn1 [EF31]", 11.5]
]}
